ASSAY_TEXT: Cytotoxicity against human KKU-213 cells assessed as growth inhibition incubated for 48 hrs by MTT assay
Format: functional, cell-based, KKUM213
MEASUREMENT_SETUP: KKU-M213, 48 h

COMPOUND	RELATION_OPERATOR	IC50 [µM]
C=C[C@@]1(C)CC=C2[C@@H](CC[C@@H]3[C@](C)(C(=O)OCc4ccccc4F)CCC[C@@]23C)C1	=	35
C=C[C@@]1(C)CC=C2[C@@H](CC[C@@H]3[C@](C)(C(=O)OCc4cn(Cc5ccccc5)nn4)CCC[C@@]23C)C1	=	40
C=C[C@@]1(C)CC=C2[C@@H](CC[C@@H]3[C@](C)(C(=O)OCc4ccc(F)cc4)CCC[C@@]23C)C1	=	38
C=C[C@@]1(C)CC=C2[C@@H](CC[C@@H]3[C@](C)(C(=O)OCCCCCCCC)CCC[C@@]23C)C1	>	50
C=C[C@@]1(C)CC=C2[C@@H](CC[C@@H]3[C@](C)(C(=O)OCc4cccc(F)c4)CCC[C@@]23C)C1	=	28
C=C[C@@]1(C)CC=C2[C@@H](CC[C@@H]3[C@](C)(C(=O)OCc4cn(Cc5ccc(OC)cc5)nn4)CCC[C@@]23C)C1	>	50
C=C[C@@]1(C)CC=C2[C@@H](CC[C@@H]3[C@](C)(C(=O)OCc4ccc(C)cc4)CCC[C@@]23C)C1	>	50
C=C[C@@]1(C)CC=C2[C@@H](CC[C@@H]3[C@](C)(C(=O)OCc4cn(Cc5cccc(F)c5)nn4)CCC[C@@]23C)C1	>	50
C=CCOC(=O)[C@]1(C)CCC[C@@]2(C)C3=CC[C@](C)(C=C)C[C@@H]3CC[C@H]12	>	50
C=C[C@@]1(C)CC=C2[C@@H](CC[C@@H]3[C@](C)(C(=O)OCc4cn(Cc5ccc([N+](=O)[O-])cc5)nn4)CCC[C@@]23C)C1	=	18
C=C[C@@]1(C)CC=C2[C@@H](CC[C@@H]3[C@](C)(C(=O)OCc4ccc([N+](=O)[O-])cc4)CCC[C@@]23C)C1	>	50
C=C[C@@]1(C)CC=C2[C@@H](CC[C@@H]3[C@](C)(C(=O)OCc4ccccc4)CCC[C@@]23C)C1	>	50
C=C[C@@]1(C)CC=C2[C@@H](CC[C@@H]3[C@](C)(C(=O)OCc4cn(Cc5ccccc5F)nn4)CCC[C@@]23C)C1	>	50
C=C[C@@]1(C)CC=C2[C@@H](CC[C@@H]3[C@](C)(C(=O)OCc4cn(CCCCCCCC)nn4)CCC[C@@]23C)C1	=	37
C=C[C@@]1(C)CC=C2[C@@H](CC[C@@H]3[C@](C)(C(=O)OCCCC)CCC[C@@]23C)C1	=	37
C=C[C@@]1(C)CC=C2[C@@H](CC[C@@H]3[C@](C)(C(=O)OCc4cn(Cc5ccc(Cl)cc5)nn4)CCC[C@@]23C)C1	>	50
O=C(NC1=CC(=O)[C@H]2O[C@H]2[C@H]1O)c1ccccc1O [DEHYDROXYMETHYLEPOXYQUINOMICIN]	=	19
C=C[C@@]1(C)CC=C2[C@@H](CC[C@@H]3[C@](C)(C(=O)OCc4cn(Cc5ccc(C)cc5)nn4)CCC[C@@]23C)C1	=	47
C=C[C@@]1(C)CC=C2[C@@H](CC[C@@H]3[C@](C)(C(=O)O)CCC[C@@]23C)C1	=	149
C=C[C@@]1(C)CC=C2[C@@H](CC[C@@H]3[C@](C)(C(=O)OCc4ccc(Cl)cc4)CCC[C@@]23C)C1	>	50
C=C[C@@]1(C)CC=C2[C@@H](CC[C@@H]3[C@](C)(C(=O)OCc4cn(Cc5ccc(F)cc5)nn4)CCC[C@@]23C)C1	>	50
C=C[C@@]1(C)CC=C2[C@@H](CC[C@@H]3[C@](C)(C(=O)OCc4ccc(Br)cc4)CCC[C@@]23C)C1	=	41
C=C[C@@]1(C)CC=C2[C@@H](CC[C@@H]3[C@](C)(C(=O)OCc4ccc(OC)cc4)CCC[C@@]23C)C1	>	50
C#CCOC(=O)[C@]1(C)CCC[C@@]2(C)C3=CC[C@](C)(C=C)C[C@@H]3CC[C@H]12	=	31
C=C[C@@]1(C)CC=C2[C@@H](CC[C@@H]3[C@](C)(C(=O)OCc4cn(Cc5ccc(Br)cc5)nn4)CCC[C@@]23C)C1	>	50

###

ASSAY_TEXT: Cytotoxicity against human KKU-055 cells assessed as growth inhibition incubated for 48 hrs by MTT assay
Assay type: functional, cell-based, KKUM055
MEASUREMENT_SETUP: KKU-M055, 48 h
Reported IC50 by item:
OBSERVATION_TYPE: IC50

SAMPLE_SMILES	RESULT
C=C[C@@]1(C)CC=C2[C@@H](CC[C@@H]3[C@](C)(C(=O)OCc4cn(Cc5ccc(C)cc5)nn4)CCC[C@@]23C)C1	> 50 µM
C=C[C@@]1(C)CC=C2[C@@H](CC[C@@H]3[C@](C)(C(=O)OCc4cn(Cc5ccccc5)nn4)CCC[C@@]23C)C1	47 µM
C=C[C@@]1(C)CC=C2[C@@H](CC[C@@H]3[C@](C)(C(=O)OCc4ccc(C)cc4)CCC[C@@]23C)C1	> 50 µM
C=C[C@@]1(C)CC=C2[C@@H](CC[C@@H]3[C@](C)(C(=O)OCc4cn(Cc5cccc(F)c5)nn4)CCC[C@@]23C)C1	> 50 µM
C=C[C@@]1(C)CC=C2[C@@H](CC[C@@H]3[C@](C)(C(=O)OCc4cccc(F)c4)CCC[C@@]23C)C1	41 µM
C=C[C@@]1(C)CC=C2[C@@H](CC[C@@H]3[C@](C)(C(=O)OCc4cn(Cc5ccccc5F)nn4)CCC[C@@]23C)C1	> 50 µM
C=C[C@@]1(C)CC=C2[C@@H](CC[C@@H]3[C@](C)(C(=O)OCc4ccc(Br)cc4)CCC[C@@]23C)C1	> 50 µM

###

Reported IC50 values follow for various compounds
ASSAY_TEXT: Cytotoxicity against human KKU-055 cells assessed as growth inhibition incubated for 48 hrs by MTT assay
Format: functional, cell-based, KKUM055
MEASUREMENT_SETUP: KKU-M055, 48 h
OBSERVATION_TYPE: IC50

SAMPLE_SMILES	RESULT
C=C[C@@]1(C)CC=C2[C@@H](CC[C@@H]3[C@](C)(C(=O)OCc4cn(Cc5ccc(F)cc5)nn4)CCC[C@@]23C)C1	> 50 µM
C=C[C@@]1(C)CC=C2[C@@H](CC[C@@H]3[C@](C)(C(=O)OCc4cn(Cc5ccc(Br)cc5)nn4)CCC[C@@]23C)C1	> 50 µM
C=C[C@@]1(C)CC=C2[C@@H](CC[C@@H]3[C@](C)(C(=O)OCc4ccc([N+](=O)[O-])cc4)CCC[C@@]23C)C1	> 50 µM
C=C[C@@]1(C)CC=C2[C@@H](CC[C@@H]3[C@](C)(C(=O)OCc4ccc(F)cc4)CCC[C@@]23C)C1	> 50 µM
C=C[C@@]1(C)CC=C2[C@@H](CC[C@@H]3[C@](C)(C(=O)OCc4ccc(OC)cc4)CCC[C@@]23C)C1	> 50 µM
C=C[C@@]1(C)CC=C2[C@@H](CC[C@@H]3[C@](C)(C(=O)OCCCC)CCC[C@@]23C)C1	49 µM
C=C[C@@]1(C)CC=C2[C@@H](CC[C@@H]3[C@](C)(C(=O)OCc4ccccc4)CCC[C@@]23C)C1	> 50 µM
C=CCOC(=O)[C@]1(C)CCC[C@@]2(C)C3=CC[C@](C)(C=C)C[C@@H]3CC[C@H]12	> 50 µM
C=C[C@@]1(C)CC=C2[C@@H](CC[C@@H]3[C@](C)(C(=O)OCc4cn(Cc5ccc(Cl)cc5)nn4)CCC[C@@]23C)C1	> 50 µM
C=C[C@@]1(C)CC=C2[C@@H](CC[C@@H]3[C@](C)(C(=O)OCc4cn(Cc5ccc([N+](=O)[O-])cc5)nn4)CCC[C@@]23C)C1	33 µM
C=C[C@@]1(C)CC=C2[C@@H](CC[C@@H]3[C@](C)(C(=O)OCc4cn(Cc5ccc(OC)cc5)nn4)CCC[C@@]23C)C1	> 50 µM
C=C[C@@]1(C)CC=C2[C@@H](CC[C@@H]3[C@](C)(C(=O)OCc4ccccc4F)CCC[C@@]23C)C1	47 µM
C#CCOC(=O)[C@]1(C)CCC[C@@]2(C)C3=CC[C@](C)(C=C)C[C@@H]3CC[C@H]12	37 µM
C=C[C@@]1(C)CC=C2[C@@H](CC[C@@H]3[C@](C)(C(=O)OCc4cn(CCCCCCCC)nn4)CCC[C@@]23C)C1	48 µM

###

ASSAY_TEXT: Cytotoxicity against human KKU-055 cells assessed as growth inhibition incubated for 48 hrs by MTT assay
Type: functional, cell-based, KKUM055
MEASUREMENT_SETUP: KKU-M055, 48 h
pIC50: −log10 of the molar value.

SAMPLE_SMILES	pIC50
C=C[C@@]1(C)CC=C2[C@@H](CC[C@@H]3[C@](C)(C(=O)OCc4ccc(Cl)cc4)CCC[C@@]23C)C1	< 4.30
C=C[C@@]1(C)CC=C2[C@@H](CC[C@@H]3[C@](C)(C(=O)OCCCCCCCC)CCC[C@@]23C)C1	< 4.30
C=C[C@@]1(C)CC=C2[C@@H](CC[C@@H]3[C@](C)(C(=O)O)CCC[C@@]23C)C1	3.92
